Where do these numbers come from? They come from ChEMBL document CHEMBL3596108.

PROTOCOL_DETAILS: AUC (0 to t) in nude mouse at 30 mg/kg, ip administered as single dose
Type: ADME, organism-based
CONDITION_SET: in vivo

- COMPOUND: "Cl.NC1CCc2c(Br)ccc(-c3ccccc3)c2CC1=O (stereo unspecified)"
  AUC(0-t) / ng·h/mL: 190

----------
PROTOCOL_DETAILS: Passive permeability of the compound by PAMPA method
Type: physicochemical
CONDITION_SET: read-out: permeability

- COMPOUND: "Cl.NC1CCc2c(Br)ccc(-c3ccccc3)c2CC1=O (stereo unspecified)"
  Papp (×10⁻⁶ cm/s): 3.03
